- test-system: T1, human serum albumin (human, UniProt P02768 25-609)
- T1 construct: also called HSA
- run-description: SPR pH 6.0
property: pKd
Answer as the number alone; pKd is minus log10 of concentration in mol/L.

Below: 2 binders and their reported pKd.
Fill in the blank: the reported pKd of T026301170 (bispecific antibody, bispecific ISVD construct; also called T0263018B11(E1D)-35GS-ALB23002-A) DVQLVESGGGVVQPGGSLRLSCAASGFTFSSYAMYWVRQAPGKGLEWVSAISSGGGSTDYADSVKGRFTISRDNSKNTLYLQMNSLRPEDTALYYCAADTLYTSLTWYSYWGQGTLVTVSSGGGGSGGGGSGGGGSGGGGSGGGGSGGGGSGGGGSEVQLVESGGGVVQPGGSLRLSCAASGFTFRSFGMSWVRQAPGKGPEWVSSISGSGSDTLYADSVKGRFTISRDNSKNTLYLQMNSLRPEDTALYYCTIGGSLSRSSQGTLVTVSSA is ____.
8.21

Fill in the blank: the reported pKd of T026301197 (bispecific antibody, name in Kabat numbering, bispecific ISVD construct; also called T0263018B11(E1D, S52aQ)-35GS-ALB23002-A) DVQLVESGGGVVQPGGSLRLSCAASGFTFSSYAMYWVRQAPGKGLEWVSAISQGGGSTDYADSVKGRFTISRDNSKNTLYLQMNSLRPEDTALYYCAADTLYTSLTWYSYWGQGTLVTVSSGGGGSGGGGSGGGGSGGGGSGGGGSGGGGSGGGGSEVQLVESGGGVVQPGGSLRLSCAASGFTFRSFGMSWVRQAPGKGPEWVSSISGSGSDTLYADSVKGRFTISRDNSKNTLYLQMNSLRPEDTALYYCTIGGSLSRSSQGTLVTVSSA is ____.
8.29

Continuing:
Fill in the blank: the reported pKd of T026301192 (bispecific antibody, name in Kabat numbering, bispecific ISVD construct; also called T0263018B11(E1D, S100E)-35GS-ALB23002-A) DVQLVESGGGVVQPGGSLRLSCAASGFTFSSYAMYWVRQAPGKGLEWVSAISSGGGSTDYADSVKGRFTISRDNSKNTLYLQMNSLRPEDTALYYCAADTLYTELTWYSYWGQGTLVTVSSGGGGSGGGGSGGGGSGGGGSGGGGSGGGGSGGGGSEVQLVESGGGVVQPGGSLRLSCAASGFTFRSFGMSWVRQAPGKGPEWVSSISGSGSDTLYADSVKGRFTISRDNSKNTLYLQMNSLRPEDTALYYCTIGGSLSRSSQGTLVTVSSA is ____.
8.24

Fill in the blank: the reported pKd of T026301198 (bispecific antibody, name in Kabat numbering, bispecific ISVD construct; also called T0263018B11(E1D, W100cS)-35GS-ALB23002-A) DVQLVESGGGVVQPGGSLRLSCAASGFTFSSYAMYWVRQAPGKGLEWVSAISSGGGSTDYADSVKGRFTISRDNSKNTLYLQMNSLRPEDTALYYCAADTLYTSLTSYSYWGQGTLVTVSSGGGGSGGGGSGGGGSGGGGSGGGGSGGGGSGGGGSEVQLVESGGGVVQPGGSLRLSCAASGFTFRSFGMSWVRQAPGKGPEWVSSISGSGSDTLYADSVKGRFTISRDNSKNTLYLQMNSLRPEDTALYYCTIGGSLSRSSQGTLVTVSSA is ____.
8.14

Fill in the blank: the reported pKd of T026301196 (bispecific antibody, name in Kabat numbering, bispecific ISVD construct; also called T0263018B11(E1D, G26T, S52aQ, W100cS)-35GS-ALB23002-A) DVQLVESGGGVVQPGGSLRLSCAASTFTFSSYAMYWVRQAPGKGLEWVSAISQGGGSTDYADSVKGRFTISRDNSKNTLYLQMNSLRPEDTALYYCAADTLYTSLTSYSYWGQGTLVTVSSGGGGSGGGGSGGGGSGGGGSGGGGSGGGGSGGGGSEVQLVESGGGVVQPGGSLRLSCAASGFTFRSFGMSWVRQAPGKGPEWVSSISGSGSDTLYADSVKGRFTISRDNSKNTLYLQMNSLRPEDTALYYCTIGGSLSRSSQGTLVTVSSA is ____.
8.13

Fill in the blank: the reported pKd of T026301195 (bispecific antibody, name in Kabat numbering, bispecific ISVD construct; also called T0263018B11(E1D, S31E, A33D, W100cS)-35GS-ALB23002-A) DVQLVESGGGVVQPGGSLRLSCAASGFTFSEYDMYWVRQAPGKGLEWVSAISSGGGSTDYADSVKGRFTISRDNSKNTLYLQMNSLRPEDTALYYCAADTLYTSLTSYSYWGQGTLVTVSSGGGGSGGGGSGGGGSGGGGSGGGGSGGGGSGGGGSEVQLVESGGGVVQPGGSLRLSCAASGFTFRSFGMSWVRQAPGKGPEWVSSISGSGSDTLYADSVKGRFTISRDNSKNTLYLQMNSLRPEDTALYYCTIGGSLSRSSQGTLVTVSSA is ____.
8.21
